- experimental-target: UGT1A1 (Homo sapiens)
- Sequence (P22309 26-533): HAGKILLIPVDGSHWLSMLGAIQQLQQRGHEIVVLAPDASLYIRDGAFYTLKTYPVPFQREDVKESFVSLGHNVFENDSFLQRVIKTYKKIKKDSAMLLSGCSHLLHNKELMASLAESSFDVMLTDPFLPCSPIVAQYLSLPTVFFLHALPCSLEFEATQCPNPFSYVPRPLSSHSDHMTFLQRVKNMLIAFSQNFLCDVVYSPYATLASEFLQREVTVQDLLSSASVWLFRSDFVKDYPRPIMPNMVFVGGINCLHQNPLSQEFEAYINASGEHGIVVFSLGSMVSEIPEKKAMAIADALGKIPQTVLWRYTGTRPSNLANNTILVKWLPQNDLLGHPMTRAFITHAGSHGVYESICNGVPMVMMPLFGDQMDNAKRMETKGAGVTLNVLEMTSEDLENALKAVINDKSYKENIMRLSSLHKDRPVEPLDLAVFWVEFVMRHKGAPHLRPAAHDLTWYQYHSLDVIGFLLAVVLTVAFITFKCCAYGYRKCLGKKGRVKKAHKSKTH
- procedure-summary: Inhibition of raloxifene glucuronidation by recombinant UGT1A1 Supersomes
- study-conditions: UGT1A1
measure: inhibition of raloxifene glucuronidation, in words

[
  {
    "compound": "O=C(O)Cc1ccccc1Nc1c(Cl)cccc1Cl [Diclofenac, reference compound]",
    "assay-result": "poor inhibitors"
  },
  {
    "compound": "COc1c(C)c2c(c(O)c1C/C=C(\\C)CCC(=O)O)C(=O)OC2 [Mycophenolic acid, reference compound]",
    "assay-result": "poor inhibitors"
  }
]

====

- experimental-target: UGT1A3 (Homo sapiens)
- Sequence (P35503 29-534): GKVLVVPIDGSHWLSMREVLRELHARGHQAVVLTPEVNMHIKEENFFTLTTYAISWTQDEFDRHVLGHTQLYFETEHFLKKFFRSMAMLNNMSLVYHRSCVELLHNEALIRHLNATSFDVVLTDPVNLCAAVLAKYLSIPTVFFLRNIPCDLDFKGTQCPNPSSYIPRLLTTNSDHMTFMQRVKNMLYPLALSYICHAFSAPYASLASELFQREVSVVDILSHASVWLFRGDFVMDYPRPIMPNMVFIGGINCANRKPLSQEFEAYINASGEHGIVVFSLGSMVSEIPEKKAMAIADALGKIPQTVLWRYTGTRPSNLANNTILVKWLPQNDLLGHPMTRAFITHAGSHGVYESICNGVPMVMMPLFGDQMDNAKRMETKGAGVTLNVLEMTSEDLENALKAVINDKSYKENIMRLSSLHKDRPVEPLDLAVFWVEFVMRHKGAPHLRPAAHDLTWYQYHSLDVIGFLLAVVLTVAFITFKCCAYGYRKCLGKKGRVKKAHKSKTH
- procedure-summary: Inhibition of raloxifene glucuronidation by recombinant UGT1A3 Supersomes
- study-conditions: human, Supersomes with recombinant human UGT1A3, pH 7.5, probe raloxifene 50 μM, formation of glucuronide G1, % of control metabolism, raloxifene G1, UGT1A3; inhibitor 50 μM
measure: activity at 15 min, 50 µM (%)
Please give a number only; it is taken to be in %.

[
  {
    "item-smiles": "O=C(OC[C@H]1O[C@@H](OC(=O)c2cc(O)c(O)c(OC(=O)c3cc(O)c(O)c(O)c3)c2)[C@H](OC(=O)c2cc(O)c(O)c(OC(=O)c3cc(O)c(O)c(O)c3)c2)[C@@H](OC(=O)c2cc(O)c(O)c(OC(=O)c3cc(O)c(O)c(O)c3)c2)[C@@H]1OC(=O)c1cc(O)c(O)c(OC(=O)c2cc(O)c(O)c(O)c2)c1)c1cc(O)c(O)c(OC(=O)c2cc(O)c(O)c(O)c2)c1",
    "experimental-target": "UGT1A3 (Homo sapiens)",
    "measure": "activity at 15 min, 50 µM",
    "assay-result": 3
  }
]

Next:
-- ask Record O=c1c(O)c(-c2ccc(O)c(O)c2)oc2cc(O)cc(O)c12 : what is its activity at 15 min, 50 µM with UGT1A3 (Homo sapiens)?
-- reply 28

====

- System: UGT enzymes of pooled human jejunum microsomes
- procedure-summary: Inhibition of estradiol (E2) glucuronidation in pooled human jejunum microsomes
- Assay type: biochemical
- study-conditions: jejunum HJ61; E2 50 μM; inhibitor 50 μM
measure: residual metabolism (% of control), E2-17-β-D-glucuronide

Below: 3 compounds and their reported residual metabolism (% of control), E2-17-β-D-glucuronide.
[
  {
    "compound": "O=C(O[C@@H]1Cc2c(O)cc(O)cc2O[C@H]1c1cc(O)c(O)c(O)c1)c1cc(O)c(O)c(O)c1 [Gallocatechin gallate]",
    "experimental-target": "UGT enzymes of pooled human jejunum microsomes",
    "assay-result": "39 (1) %"
  },
  {
    "compound": "O=C(O[C@@H]1Cc2c(O)cc(O)cc2O[C@@H]1c1ccc(O)c(O)c1)c1cc(O)c(O)c(O)c1 [Epicatechin gallate]",
    "experimental-target": "UGT enzymes of pooled human jejunum microsomes",
    "assay-result": "61 (4) %"
  },
  {
    "compound": "O=c1c(O)c(-c2ccc(O)c(O)c2)oc2cc(O)cc(O)c12",
    "experimental-target": "UGT enzymes of pooled human jejunum microsomes",
    "assay-result": "56 (2) %"
  }
]

-- ask Given the compound O=C(O[C@@H]1Cc2c(O)cc(O)cc2O[C@@H]1c1cc(O)c(O)c(O)c1)c1cc(O)c(O)c(O)c1 [Epigallocatechin gallate] , what is its reported residual metabolism (% of control), E2-17-β-D-glucuronide?
-- reply 41 (4) %

====

- Tested on: UGT enzymes of human liver microsomes
- Construct: percentage of control metabolism, 7-HFC glucuronidation; percentage of control metabolism, 7-HFC glucuronidation
- procedure-summary: Inhibition of 7-HFC glucuronidation in human liver microsomes
- Type: biochemical
- study-conditions: inhibitor 500 μM; 7-HFC 50 μM, human liver microsomes 100 μg/ml, 15 min
measure: % of control metabolism (SD, n = 3), 7-HFC glucuronidation

[
  {
    "compound": "C[C@]12CC[C@@H]3c4ccc(O)cc4CC[C@H]3[C@@H]1C[C@@H](O)[C@@H]2O [Estriol]",
    "assay-result": "84 (2) %"
  }
]

-- ask Query: % of control metabolism (SD, n = 3), 7-HFC glucuronidation; subject: CCCC(=O)OCC(O)C1OC(=O)C(OC(=O)CCC)=C1O (centres unmarked) [Ascorbyl-2,6-dibutyrate]
-- reply 92 (1) %

-- ask Which % of control metabolism (SD, n = 3), 7-HFC glucuronidation is listed for CCCCCCCCCCCCCCCC(=O)Oc1cccc2ccccc12 [α-Naphthyl palmitate] ?
-- reply 70 (3) %

-- ask Which % of control metabolism (SD, n = 3), 7-HFC glucuronidation is listed for O=C(OC[C@H]1O[C@@H](OC(=O)c2cc(O)c(O)c(OC(=O)c3cc(O)c(O)c(O)c3)c2)[C@H](OC(=O)c2cc(O)c(O)c(OC(=O)c3cc(O)c(O)c(O)c3)c2)[C@@H](OC(=O)c2cc(O)c(O)c(OC(=O)c3cc(O)c(O)c(O)c3)c2)[C@@H]1OC(=O)c1cc(O)c(O)c(OC(=O)c2cc(O)c(O)c(O)c2)c1)c1cc(O)c(O)c(OC(=O)c2cc(O)c(O)c(O)c2)c1 [Tannic acid] ?
-- reply 0 (0) %

-- ask Quick one: % of control metabolism (SD, n = 3), 7-HFC glucuronidation for CC1=CC(=O)c2ccccc2C1=O [Vitamin K3] ?
-- reply 78 (2) %

-- ask Would you mind telling me what % of control metabolism (SD, n = 3), 7-HFC glucuronidation value was observed for CC1=C(CC(=O)O)c2cc(F)ccc2/C1=C\c1ccc([S+](C)[O-])cc1 (centres unmarked) [Sulindac] ?
-- reply 85 (0) %

-- ask If you can, please state the reported % of control metabolism (SD, n = 3), 7-HFC glucuronidation value of O=C(O[C@@H]1Cc2c(O)cc(O)cc2O[C@H]1c1cc(O)c(O)c(O)c1)c1cc(O)c(O)c(O)c1 [Gallocatechin gallate] .
-- reply 0 (0) %

-- ask I am curious: what % of control metabolism (SD, n = 3), 7-HFC glucuronidation value has been reported for Cc1ccc(C(C)C)cc1O [Carvacrol] ?
-- reply 31 (1) %

-- ask Item CCCCCCCCC(=O)NCc1ccc(O)c(OC)c1 [N-Vanillylnonanamide] has what recorded % of control metabolism (SD, n = 3), 7-HFC glucuronidation?
-- reply 48 (1) %

====

- experimental-target: UGT enzymes of human liver microsomes (Homo sapiens)
- Construct: residual metabolism (percentage of control), zidovudine glucuronidation; other: liver lot 062101; residual metabolism (percentage of control), zidovudine glucuronidation; residual metabolism (percentage of control)
- Sequence (P16662 whole entry): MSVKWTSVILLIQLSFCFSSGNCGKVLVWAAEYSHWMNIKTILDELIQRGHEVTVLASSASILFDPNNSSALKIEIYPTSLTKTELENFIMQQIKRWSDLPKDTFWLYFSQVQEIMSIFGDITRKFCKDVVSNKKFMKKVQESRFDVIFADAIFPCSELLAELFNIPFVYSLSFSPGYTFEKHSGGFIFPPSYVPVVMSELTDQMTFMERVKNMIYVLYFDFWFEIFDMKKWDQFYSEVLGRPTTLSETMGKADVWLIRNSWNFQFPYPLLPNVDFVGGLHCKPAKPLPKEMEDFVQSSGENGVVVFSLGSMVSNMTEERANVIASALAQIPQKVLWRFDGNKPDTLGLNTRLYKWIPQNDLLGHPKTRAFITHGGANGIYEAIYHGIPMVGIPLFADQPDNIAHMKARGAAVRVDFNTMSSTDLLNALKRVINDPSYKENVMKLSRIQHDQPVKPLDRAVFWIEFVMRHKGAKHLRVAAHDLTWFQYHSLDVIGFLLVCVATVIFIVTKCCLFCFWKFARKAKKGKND
- procedure-summary: Inhibition of zidovudine glucuronidation in human liver microsomes
- Format: biochemical
- study-conditions: liver lot 062101; inhibitor 100 μM
measure: residual metabolism (percentage of control), zidovudine glucuronidation

[
  {
    "compound": "O=C(c1ccc(OCCN2CCCCC2)cc1)c1c(-c2ccc(O)cc2)sc2cc(O)ccc12 [Raloxifene, raloxifene, reference compound]",
    "experimental-target": "UGT enzymes of human liver microsomes (Homo sapiens)",
    "assay-result": "76 (3) %"
  },
  {
    "compound": "O=c1c(O)c(-c2ccc(O)c(O)c2)oc2cc(O)cc(O)c12 [Quercetin]",
    "experimental-target": "UGT enzymes of human liver microsomes (Homo sapiens)",
    "assay-result": "94 (8) %"
  },
  {
    "compound": "CC(C)=CCC/C(C)=C/CO [Geraniol]",
    "experimental-target": "UGT enzymes of human liver microsomes (Homo sapiens)",
    "assay-result": "77 (5) %"
  },
  {
    "compound": "C#C[C@]1(O)CC[C@H]2[C@@H]3CCc4cc(O)ccc4[C@H]3CC[C@@]21C [17-α-Ethinylestradiol, 17-α-ethinylestradiol, reference compound]",
    "experimental-target": "UGT enzymes of human liver microsomes (Homo sapiens)",
    "assay-result": "40 (2) %"
  }
]

-- ask # lookup: residual metabolism (percentage of control), zidovudine glucuronidation of CC/C(=C(/CC)c1ccc(O)cc1)c1ccc(O)cc1 [Diethylstilbestrol, reference compound]
-- reply 34 (4) %

-- ask Query: residual metabolism (percentage of control), zidovudine glucuronidation; subject: O=C(O[C@@H]1Cc2c(O)cc(O)cc2O[C@@H]1c1cc(O)c(O)c(O)c1)c1cc(O)c(O)c(O)c1 [Epigallocatechin gallate]
-- reply 60 (2) %

-- ask Value lookup for residual metabolism (percentage of control), zidovudine glucuronidation; key = C[C@]12CC[C@@H]3c4ccc(O)cc4CC[C@H]3[C@@H]1CC[C@@H]2O [E2, 17-β-estradiol, reference compound]
-- reply 28 (1) %

-- ask Tell me the measured residual metabolism (percentage of control), zidovudine glucuronidation of Cc1ccc(C(C)C)cc1O [Carvacrol] , please.
-- reply 94 (1) %

-- ask What value of measured residual metabolism (percentage of control), zidovudine glucuronidation is listed for O=C(O[C@@H]1Cc2c(O)cc(O)cc2O[C@@H]1c1ccc(O)c(O)c1)c1cc(O)c(O)c(O)c1 [Epicatechin gallate] ?
-- reply 67 (1) %
